Subject of test: ΔF508-CFTR (Homo sapiens, UniProt P13569, DEL508-508)
Construct: expressed in transfected cells
Sequence (P13569 with tags, fused parts or gaps DEL508-508): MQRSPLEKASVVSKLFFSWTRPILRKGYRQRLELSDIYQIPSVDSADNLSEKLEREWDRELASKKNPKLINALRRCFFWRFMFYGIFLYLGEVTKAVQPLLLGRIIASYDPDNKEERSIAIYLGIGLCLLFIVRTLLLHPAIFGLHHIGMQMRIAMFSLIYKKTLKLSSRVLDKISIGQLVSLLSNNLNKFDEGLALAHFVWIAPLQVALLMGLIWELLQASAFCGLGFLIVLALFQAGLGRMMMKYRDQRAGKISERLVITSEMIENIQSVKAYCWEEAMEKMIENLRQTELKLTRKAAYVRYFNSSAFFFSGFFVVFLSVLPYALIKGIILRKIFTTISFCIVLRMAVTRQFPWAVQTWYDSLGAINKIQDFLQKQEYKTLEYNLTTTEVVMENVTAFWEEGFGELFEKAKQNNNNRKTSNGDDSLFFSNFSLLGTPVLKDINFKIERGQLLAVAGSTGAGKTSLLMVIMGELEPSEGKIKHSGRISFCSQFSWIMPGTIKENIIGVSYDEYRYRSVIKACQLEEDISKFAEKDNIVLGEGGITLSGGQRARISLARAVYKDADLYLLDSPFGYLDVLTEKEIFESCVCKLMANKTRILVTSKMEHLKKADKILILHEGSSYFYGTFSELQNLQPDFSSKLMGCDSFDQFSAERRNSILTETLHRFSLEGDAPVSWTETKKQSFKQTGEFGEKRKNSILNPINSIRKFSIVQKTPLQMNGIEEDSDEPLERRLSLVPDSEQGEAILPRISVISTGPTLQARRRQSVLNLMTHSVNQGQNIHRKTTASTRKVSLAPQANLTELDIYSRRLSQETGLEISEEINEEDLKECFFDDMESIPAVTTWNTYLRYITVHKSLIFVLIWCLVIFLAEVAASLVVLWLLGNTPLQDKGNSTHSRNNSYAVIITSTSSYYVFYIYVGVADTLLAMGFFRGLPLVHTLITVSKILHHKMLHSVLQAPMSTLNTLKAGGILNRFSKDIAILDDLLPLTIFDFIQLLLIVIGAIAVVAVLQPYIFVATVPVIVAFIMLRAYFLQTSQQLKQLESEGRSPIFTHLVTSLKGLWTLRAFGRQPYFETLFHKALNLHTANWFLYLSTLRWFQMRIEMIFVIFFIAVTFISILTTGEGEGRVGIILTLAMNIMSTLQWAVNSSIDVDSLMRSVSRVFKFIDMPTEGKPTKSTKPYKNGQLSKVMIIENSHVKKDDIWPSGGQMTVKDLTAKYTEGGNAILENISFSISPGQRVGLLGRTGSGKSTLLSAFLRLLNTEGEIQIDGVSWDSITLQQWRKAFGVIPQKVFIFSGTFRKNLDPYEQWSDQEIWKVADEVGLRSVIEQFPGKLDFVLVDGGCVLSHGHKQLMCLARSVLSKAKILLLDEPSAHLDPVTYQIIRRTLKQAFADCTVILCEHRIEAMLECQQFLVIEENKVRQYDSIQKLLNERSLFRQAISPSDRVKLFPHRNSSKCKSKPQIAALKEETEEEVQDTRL
Protocol details: Membrane potential optical assay (FRET voltage-sensor dyes, VIPR), identification of potentiator compounds
Type: cell-based
Particulars: Table 3; assay not given; read-out: % Activity (% Efficacy, relative efficacy)
Property name: Emax

# count of solved cases: 5
O=C(Nc1cc(C(F)(F)F)ccc1C(F)(F)F)c1c[nH]c2ccccc2c1=O [Compound 630]
25 to 100%
CC(C)c1ccc(NC(=O)c2c[nH]c3ccccc3c2=O)cc1N [Compound 69]
25 to 100%
O=C(Nc1ccc(OCc2ccccc2)cc1)c1c[nH]c2ccccc2c1=O [Compound 189]
25 to 100%
COC(=O)C1CCCCN1c1ccc(NC(=O)c2c[nH]c3ccccc3c2=O)c(C(F)(F)F)c1 (stereo not drawn) [Compound 492]
> 100%
COc1ccc(C)cc1NC(=O)c1c[nH]c2ccccc2c1=O [Compound 120]
25 to 100%

Would you be so kind as to report Emax for each listed record?
1. COc1ccc(NC(=O)c2c[nH]c3ccccc3c2=O)cc1 [Compound 439]
2. CCOc1ccc(NC(C)=O)cc1NC(=O)c1c[nH]c2ccccc2c1=O [Compound 132]
3. CC(O)c1ccc(NC(=O)c2c[nH]c3ccccc3c2=O)cc1 (stereo not drawn) [Compound 450]

OUT:
["25 to 100%", "< 25%", "25 to 100%"]

For reference, reported Emax for CC(C)(C)c1cc(C(C)(C)C)c(NC(=O)c2c[nH]c3ccc(O)cc3c2=O)cc1O [Compound 702] stands at 25 to 100%

----------
For each record, write down the corresponding Emax.
Subject of test: ΔF508-CFTR (Homo sapiens, UniProt P13569, DEL508-508)
Construct: expressed in transfected cells
Protocol details: Membrane potential optical assay (FRET voltage-sensor dyes, VIPR), identification of potentiator compounds
Assay type: cell-based
Particulars: Table 3; assay not given; read-out: % Activity (% Efficacy, relative efficacy)

Below, each entry is followed by its recorded Emax result.
Cc1ccc(NC(=O)c2c[nH]c3ccccc3c2=O)cc1N [Compound 167]
25 to 100%
CCOc1ccc(-c2ccccc2NC(=O)c2c[nH]c3ccccc3c2=O)cc1 [Compound 348]
25 to 100%
CC(C)(C)c1ccc(O)cc1NC(=O)c1c[nH]c2ccc(F)cc2c1=O [Compound 665]
25 to 100%
Cc1ccc2[nH]cc(C(=O)Nc3cc(O)c(C(C)(C)C)cc3C(C)(C)C)c(=O)c2c1 [Compound 688]
25 to 100%
Cc1ccc2c(c1)c(=O)c(C(=O)Nc1ccccc1)cn2C [Compound 394]
< 25%

Look up Emax for the entries below, preserving their order.
1. O=C(Nc1ccccc1-c1cc(Cl)ccc1Cl)c1c[nH]c2ccccc2c1=O [Compound 213]
2. CN(C)c1ccc2[nH]cc(C(=O)Nc3cc(O)c(C(C)(C)C)cc3C(C)(C)C)c(=O)c2c1 [Compound 544]
3. CC(C)(C)OC(=O)[C@H]1CCCN1c1ccc(NC(=O)c2c[nH]c3ccccc3c2=O)c(C(F)(F)F)c1 [Compound 540]
4. CCc1cc(C(C)(C)C)c(O)cc1NC(=O)c1c[nH]c2ccc(F)cc2c1=O [Compound 649]
5. COC(=O)[C@@H]1CCCCN1c1ccc(NC(=O)c2c[nH]c3ccccc3c2=O)c(C(F)(F)F)c1 [Compound 715]

OUT:
25 to 100%
25 to 100%
> 100%
25 to 100%
25 to 100%

Look up Emax for the entries below, preserving their order.
1. O=C(Nc1cnccn1)c1c[nH]c2ccccc2c1=O [Compound 219]
2. CCc1ccc(NC(=O)c2c[nH]c3ccccc3c2=O)cc1NC(=O)OC [Compound 129]

OUT:
< 25%
25 to 100%

I would be grateful if you could provide Emax for each of the following entries.
1. O=C(Nc1ccccc1-c1ccc2[nH]ccc2c1)c1c[nH]c2ccccc2c1=O [Compound 118]
2. Cc1ccc2[nH]cc(C(=O)Nc3ccc(N4CCCC4C)cc3C(F)(F)F)c(=O)c2c1 (centres unmarked) [Compound 503]
3. O=C(Nc1ccc2c(c1)NCCC2)c1c[nH]c2ccccc2c1=O [Compound 299]
4. CC(C)c1cccc(C(C)C)c1NC(=O)c1c[nH]c2ccccc2c1=O [Compound 466]
5. COc1cc(NC(=O)c2c[nH]c3ccccc3c2=O)ccc1-n1c(C)ccc1C [Compound 560]

OUT:
25 to 100%
25 to 100%
25 to 100%
25 to 100%
25 to 100%

----------
Assign Emax to each entry below.
Subject of test: ΔF508-CFTR (Homo sapiens, UniProt P13569, DEL508-508)
Construct: expressed in transfected cells
Protocol details: Membrane potential optical assay (FRET voltage-sensor dyes, VIPR), identification of potentiator compounds
Format: cell-based
Particulars: Table 3; assay not given; read-out: % Activity (% Efficacy, relative efficacy)

Recorded results for 8 compounds are shown here.
O=C(Nc1cc(Cl)ccc1Oc1ccccc1)c1c[nH]c2ccccc2c1=O [Compound 292]
25 to 100%
CC(C)c1ccc(N)cc1NC(=O)c1c[nH]c2ccccc2c1=O [Compound 101]
25 to 100%
O=C(Nc1ccc2[nH]c(=O)oc2c1)c1c[nH]c2ccccc2c1=O [Compound 152]
< 25%
O=C(Nc1cc2[nH]ccc2cc1F)c1c[nH]c2ccc(F)cc2c1=O [Compound 254]
25 to 100%
O=C(Nc1ccccc1SC(F)(F)F)c1c[nH]c2ccccc2c1=O [Compound 371]
25 to 100%
CCc1cc(C#N)ccc1NC(=O)c1c[nH]c2ccccc2c1=O [Compound 451]
25 to 100%
O=C(Nc1cccc2[nH]ccc12)c1c[nH]c2ccccc2c1=O [Compound 100]
< 25%
CC(C)(C)c1cc2cc[nH]c2cc1NC(=O)c1c[nH]c2ccc(S(=O)(=O)N3CCCC3)cc2c1=O [Compound 274]
25 to 100%

Now look at this entry.
O=C(Nc1ccc2ccn(Cc3ccccc3)c2c1)c1c[nH]c2ccccc2c1=O [Compound 203] yielded Emax of 25 to 100%

----------
Subject of test: ΔF508-CFTR (Homo sapiens, UniProt P13569, DEL508-508)
Protocol details: Membrane potential optical assay (FRET voltage-sensor dyes, VIPR), identification of potentiator compounds
Particulars: Table 3; assay not given
pEC50: −log10 of the molar value.
Give measured pEC50 for each item. Keep answers brief.

Some compounds with recorded pEC50:
CCCc1ccc(NC(=O)c2c[nH]c3ccccc3c2=O)cc1N(C)C
> 5.00
CS(=O)(=O)Nc1cccc(NC(=O)c2c[nH]c3ccccc3c2=O)c1
4.60 to 5.00
CCOc1ccccc1-c1ccccc1NC(=O)c1c[nH]c2ccccc2c1=O
> 5.00
O=C(Nc1ccccc1-c1ccc2[nH]ccc2c1)c1c[nH]c2ccccc2c1=O
> 5.00
O=C(Nc1ccc(C2CCCCC2)cc1)c1c[nH]c2ccccc2c1=O
> 5.00

For each of the items listed, what is its pEC50?
1. Nc1cc(Cl)cc(NC(=O)c2c[nH]c3ccccc3c2=O)c1
2. CC(=O)Nc1ccc(C(C)C)c(NC(=O)c2c[nH]c3ccccc3c2=O)c1
3. CCCc1ccc(NC(=O)c2c[nH]c3ccccc3c2=O)cc1
4. O=C(Nc1ccccc1-c1ccncc1)c1c[nH]c2ccccc2c1=O

OUT:
1. > 5.00
2. 4.60 to 5.00
3. > 5.00
4. 4.60 to 5.00

----------
Subject of test: ΔF508-CFTR (Homo sapiens, UniProt P13569, DEL508-508)
Construct: expressed in transfected cells
Protocol details: Membrane potential optical assay (FRET voltage-sensor dyes, VIPR), identification of potentiator compounds
Format: cell-based
Particulars: Table 3; assay not given; read-out: % Activity (% Efficacy, relative efficacy)
Exercise: for every item that follows, state its recorded Emax.

CC(C)(C)c1ccc(NC(=O)c2c[nH]c3ccccc3c2=O)c(C(C)(C)C)c1O [Compound 594]
> 100%
CCOc1cc(NC(=O)c2c[nH]c3ccccc3c2=O)c(OCC)cc1NC(=O)c1ccccc1 [Compound 7]
< 25%
O=C(Nc1cccnc1)c1c[nH]c2ccccc2c1=O [Compound 168]
< 25%
CC(C)c1ccc(NC(=O)c2c[nH]c3ccccc3c2=O)cn1 [Compound 235]
25 to 100%
CN(c1ccc(F)cc1)S(=O)(=O)c1ccc2[nH]cc(C(=O)Nc3cc4[nH]ccc4cc3C(C)(C)C)c(=O)c2c1 [Compound 406]
25 to 100%
CSc1ccccc1NC(=O)c1c[nH]c2ccccc2c1=O [Compound 229]
25 to 100%

For each of the compounds below, state Emax.
1. O=C(Nc1ccc2c(c1)OC(F)(F)C(F)(F)O2)c1c[nH]c2ccccc2c1=O [Compound 440]
2. Cc1ccc(-c2ccccc2NC(=O)c2c[nH]c3ccccc3c2=O)cc1 [Compound 181]
3. CC(C)(C)c1cc(C(C)(C)C)c(NC(=O)c2c[nH]c3cc(O)ccc3c2=O)cc1O [Compound 652]
4. CC(C)(C)c1cc(Cl)c(NC(=O)c2c[nH]c3ccccc3c2=O)cc1O [Compound 291]
5. CC(C)(C)c1ccc(NC(=O)c2cnc3ccccc3c2OCc2ccccc2)cc1O [Compound 275]
6. C[C@H]1CCCN1c1ccc(NC(=O)c2c[nH]c3cccc(C(F)(F)F)c3c2=O)c(C(F)(F)F)c1 [Compound 669]
7. Cc1cccc2[nH]cc(C(=O)Nc3ccc(N4CCC[C@@H]4C)cc3C(F)(F)F)c(=O)c12 [Compound 511]

OUT:
25 to 100%
25 to 100%
25 to 100%
25 to 100%
25 to 100%
25 to 100%
25 to 100%

For record CC(C)(C)c1ccc(NC(=O)c2c[nH]c3ccc(F)cc3c2=O)cc1O [Compound 490] the listed Emax is 25 to 100%
